# Experimental Setup: [M-H]-; instrument: DT; single field, calibrated with ESI Low Concentration Tuning Mix (Agilent)
Parameter Measured: collision cross section (N2) (Å²)

Examples with their reported collision cross section (N2) follow.
OC[C@H]1O[C@H](OC[C@H]2OC(O)(CO)[C@@H](O)[C@@H]2O)[C@H](O)[C@@H](O)[C@@H]1O (stereo partly drawn) [PALATINOSE]: 177.9
O=P(O)(O)OC[C@H]1OC(O)[C@H](O)[C@@H]1O (stereo partly drawn) [D-RIBOSE 5-PHOSPHATE]: 139.4
O=C(O)C1=C[C@@H](O)[C@@H](O)[C@H](O)C1 [SHIKIMATE]: 136.3
N[C@@H](C(=O)O)[C@@H](O)[C@H](O)[C@H](O)CO [GLUCOSAMINATE]: 135.7
O=C(O)[C@H](O)CO [GLYCERATE]: 112.6
O=C(O)Cc1ccc(O)cc1 [P-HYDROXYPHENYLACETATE]: 128.6
NC(=O)Cc1c[nH]c2ccccc12 [INDOLE-3-ACETAMIDE]: 135.5
CS(=N)(=O)CCC(N)C(=O)O (stereo not drawn) [METHIONINE SULFOXIMINE]: 136.2
O=C1O[C@H]([C@@H](O)CO)[C@H](O)[C@@H]1O [L-GULONOLACTONE]: 129.6
OC[C@@H](O)C(O)[C@H](O)CO [ARABITOL]: 124.9

I: O=C1CC[C@@H](C(=O)O)N1 [OXOPROLINE]
II: NC(=O)c1ccc[n+]([C@@H]2O[C@H](COP(=O)(O)OP(=O)(O)OC[C@H]3O[C@@H](n4cnc5c(=O)nc[nH]c54)[C@H](O)[C@@H]3O)[C@@H](O)[C@H]2O)c1 [NICOTINAMIDE HYPOXANTHINE DINUCLEOTIDE]
Between item I and item II , which reported collision cross section (N2) is smaller? Refer to your chosen item by its label in the answer. I
(I: 124.1 Å², II: 217.7 Å²)
